Biological target: human PCSK9 (Homo sapiens, UniProt Q8NBP7)
Sequence (Q8NBP7 153-692): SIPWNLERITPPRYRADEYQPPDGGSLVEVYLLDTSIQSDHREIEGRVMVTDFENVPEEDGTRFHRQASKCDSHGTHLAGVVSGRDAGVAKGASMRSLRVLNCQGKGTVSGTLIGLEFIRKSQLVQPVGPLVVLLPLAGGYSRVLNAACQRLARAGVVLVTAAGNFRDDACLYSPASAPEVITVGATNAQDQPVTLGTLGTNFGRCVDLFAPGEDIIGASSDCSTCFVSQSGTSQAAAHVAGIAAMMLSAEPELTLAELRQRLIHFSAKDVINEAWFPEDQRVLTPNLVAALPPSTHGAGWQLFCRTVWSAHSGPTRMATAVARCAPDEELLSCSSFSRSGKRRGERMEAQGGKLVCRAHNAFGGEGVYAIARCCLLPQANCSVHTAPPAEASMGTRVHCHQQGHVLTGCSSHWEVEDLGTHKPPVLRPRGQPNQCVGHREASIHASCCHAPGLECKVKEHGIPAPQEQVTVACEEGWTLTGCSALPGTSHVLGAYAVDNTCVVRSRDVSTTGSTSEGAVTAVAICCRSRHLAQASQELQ
Sequence (Q8NBP7 31-152 partner limits assumed): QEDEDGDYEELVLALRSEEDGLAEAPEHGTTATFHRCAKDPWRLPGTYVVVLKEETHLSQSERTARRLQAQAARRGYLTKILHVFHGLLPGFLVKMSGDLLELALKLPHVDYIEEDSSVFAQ
Test: PCSK9 ligand binding assay (TR-FRET): interference with binding of human PCSK9 to human LDLR
Conditions: Human PCSK9 Alexa Fluor 647 / Human LDLR extracellular domain-Europium Kryptate
So I've got a bunch of compounds here, and I need their IC50 values.
Numbers only, in pM.

State recorded IC50 for all listed compounds.
1. C[C@H]1C(=O)N[C@@H](CO)C(=O)N(C)[C@@]2(Cc3ccc(Cl)cc3)CCCN(C2)C(=O)[C@H](C2CC(F)(F)C2)CC(=O)N1Cc1c(F)cc(Cl)cc1Oc1ccc(-c2cnc(CN(C)C)n2C)cc1 [Compound 164]
2. C[C@H]1C(=O)N[C@@H](CO)C(=O)N(C)[C@@]2(Cc3ccc(Cl)cc3)CCCN(C2)C(=O)[C@H](Cc2ccccc2)CC(=O)N1Cc1c(F)cc(Cl)cc1Oc1ccc(-c2cnc(CN(C)C)n2C)cc1 [Compound 79]

1: 900; 2: 819

====

Target: human PCSK9 (Homo sapiens)
Test: PCSK9 ligand binding assay (TR-FRET): interference with binding of human PCSK9 to human LDLR
Conditions: Human PCSK9 Alexa Fluor 647 / Human LDLR extracellular domain-Europium Kryptate
measured.property: pIC50
Give bare numbers, as −log10 of the molar value.

Example entries and their recorded answers appear below.
Note pIC50 for the molecule shown: COC[C@@H]1NC(=O)[C@H](C)N(Cc2c(F)cc(Cl)cc2Oc2ccc(-n3cnc(CN4CCCC4)c3C)cc2)C(=O)C[C@@H](Cc2ccccc2)C(=O)N2CCC[C@@](Cc3ccc(Cl)cc3)(C2)NC1=O
9.42

Name the recorded pIC50 of the item CCn1c(-c2ccc(Oc3cc(Cl)cc(F)c3CN3C(=O)C[C@@H](CC(F)(F)F)C(=O)N4CCC[C@@](Cc5ccc(Cl)cc5)(C4)NC(=O)[C@H](CO)NC(=O)[C@@H]3C)cc2)cnc1CN(C)C in your answer.
8.50

Report pIC50, nothing else, for this molecule: C[C@H]1C(=O)N[C@@H](CO)C(=O)N(C)[C@@]2(Cc3ccc(Cl)cc3)CCCN(C2)C(=O)[C@H](Cc2ccccc2)CC(=O)N1Cc1ccc(Cl)cc1Oc1ccc(-c2cnc(CN(C)C)n2C)cc1
9.15

Pending molecule:
Please report pIC50 for the following molecule: CC(=O)C[C@@H]1NC(=O)[C@H](C)N(Cc2ccc(Cl)cc2Oc2ccc(-c3cnc(CN4CCCC4)n3C)cc2)C(=O)C[C@@H](Cc2ccccc2)C(=O)N(C)C[C@@H](Cc2ccc(Cl)cc2)N(C)C1=O.Cl [Compound 129, hydrochloride]
6.69

====

Target: human PCSK9 (Homo sapiens)
Test: PCSK9 ligand binding assay (TR-FRET): interference with binding of human PCSK9 to human LDLR
Settings: efficacy (Amax), 100% = 1 uM unlabeled human PCSK9, 0% = DMSO
measured.property: Max % inhibition (%)
One number for each entry, in %.

A selection of reference data follows.
Using the record for COC[C@@H]1NC(=O)[C@H](C)N(Cc2c(F)cc(Cl)cc2Oc2ccc(-c3cnc(CN(C)C)n3C)cc2)C(=O)C[C@@H](CC(F)(F)F)C(=O)N2CCC[C@@](Cc3ccc(Cl)cc3)(C2)N(C)C1=O , state its measured Max % inhibition.
101.9

Give the reported Max % inhibition for this molecule. C[C@H]1C(=O)N[C@@H](CO)C(=O)N[C@@]2(Cc3ccc(Cl)cc3)CCCN(C2)C(=O)[C@H](C2CC(F)(F)C2)CC(=O)N1Cc1c(F)cc(Cl)cc1Oc1ccc(-c2cnc(CN(C)C)n2C)cc1
115.5

Consider the molecule COC[C@@H]1NC(=O)[C@H](C)N(Cc2ccc(Cl)cc2Oc2ccc(-c3cnc(CN4CCCC4)n3C)cc2)C(=O)C[C@@H]([C@H]2CCc3ccccc32)C(=O)N(CCC(F)F)C[C@@H](Cc2ccc(Cl)cc2)N(C)C1=O.Cl . State its measured Max % inhibition.
102.5

Next:
Provide Max % inhibition value for the following molecule: COC[C@@H]1NC(=O)[C@H](C)N(Cc2c(F)cc(Cl)cc2Oc2ccc(-c3cnc(CN(C)C)n3C)cc2)C(=O)C[C@@H](Cc2ccccc2)C(=O)N2CCC[C@@](Cc3ccc(Cl)cc3)(C2)N(C)C1=O
114.0

====

Molecular target: human PCSK9 (Homo sapiens, UniProt Q8NBP7)
Test: PCSK9 ligand binding assay (TR-FRET): interference with binding of human PCSK9 to human LDLR
Conditions: efficacy (Amax), 100% = 1 uM unlabeled human PCSK9, 0% = DMSO
Kindly state Max % inhibition for each of the entries shown.
Numbers only, in %.

Example cases with answers are listed next.
Annotate the compound COC[C@@H]1NC(=O)[C@H](C)N(Cc2ccc(Cl)cc2Oc2ccc(-c3cnc(CN4CCCC4)n3C)cc2)C(=O)C[C@@H]([C@H]2CCc3ccccc32)C(=O)N(CC2(C)CC2)C[C@@H](Cc2ccc(Cl)cc2)N(C)C1=O.Cl [Compound 115] with its measured Max % inhibition.
99.0

Query Max % inhibition for COC[C@@H]1NC(=O)[C@H](C)N(Cc2c(F)cc(Cl)cc2Oc2ccc(-c3cnc(CN(C)C(C)(C)C)n3C)cc2)C(=O)C[C@@H](CC(F)(F)F)C(=O)N2CCC[C@@](Cc3ccc(Cl)cc3)(C2)NC1=O [Compound 137]
113.0

// fetch Max % inhibition given entry COC[C@@H]1NC(=O)[C@H](C)N(Cc2ccc(Cl)cc2Oc2ccc(-c3cnc(CN4CCN(C)CC4)n3C)cc2)C(=O)C[C@@H](Cc2ccccc2)C(=O)N2CCC[C@@](Cc3ccc(Cl)cc3)(C2)NC1=O.Cl [Compound 76]
101.7

Continuing:
Return Max % inhibition for the following compound: COC[C@@H]1NC(=O)[C@H](C)N(Cc2c(F)cc(Cl)cc2Oc2ccc(-c3cnc(CN4CCC4)n3C)cc2)C(=O)C[C@@H](CC(F)(F)F)C(=O)N2CCC[C@@](Cc3ccc(Cl)cc3)(C2)N(C)C1=O [Compound 157]
104.7

====

Molecular target: human PCSK9 (Homo sapiens, UniProt Q8NBP7)
Experiment: PCSK9 ligand binding assay (TR-FRET): interference with binding of human PCSK9 to human LDLR
Conditions: efficacy (Amax), 100% = 1 uM unlabeled human PCSK9, 0% = DMSO
Exercise: state measured Max % inhibition for each of the molecules provided.
One number for each entry, in %.

Indicate the recorded Max % inhibition value for this molecule: COC[C@@H]1NC(=O)[C@H](CCC(=O)N2CCC2)N(Cc2ccc(Cl)cc2Oc2ccc(-c3cnc(CN4CCCC4)n3C)cc2)C(=O)C[C@@H]([C@H]2CC(C)(C)c3ccccc32)C(=O)N(C)C[C@@H](Cc2ccc(Cl)cc2)N(C)C1=O.Cl
100.3

Here's the next entry for you.
Please indicate Max % inhibition recorded for C[C@H]1C(=O)N[C@@H](CO)C(=O)N[C@@]2(Cc3ccc(Cl)cc3)CCCN(C2)C(=O)[C@H](Cc2cccc[n+]2[O-])CC(=O)N1Cc1ccc(Cl)cc1Oc1ccc(-c2cnc(CN(C)C)n2C)cc1
104.2

====

Kindly state IC50 for each of the entries shown.
Biological target: human PCSK9 (Homo sapiens, UniProt Q8NBP7)
Assay: PCSK9 ligand binding assay (TR-FRET): interference with binding of human PCSK9 to human LDLR
Details: Human PCSK9 Alexa Fluor 647 / Human LDLR extracellular domain-Europium Kryptate
Respond with a number, then the unit of measure.

Provide measured IC50 value, entry: C[C@H]1C(=O)N[C@@H](CO)C(=O)N[C@@]2(Cc3ccc(Cl)cc3)CCCN(C2)C(=O)[C@H]([C@H]2CCc3ccccc32)CC(=O)N1Cc1ccc(Cl)cc1Oc1ccc(-c2cnc(CN(C)C)n2C)cn1
1.1 nM

# context switch: different molecule, same IC50
Look up IC50 of C[C@H]1C(=O)N[C@@H](CO)C(=O)N[C@@]2(Cc3ccc(Cl)cc3)CCCN(C2)C(=O)[C@H](CC(F)(F)F)CC(=O)N1Cc1c(F)cc(Cl)cc1Oc1ccc(-c2cnc(CN(C)C3CCC3)n2C)cc1 and report it.
0.15 nM

====

What Max % inhibition was measured for each of the following?
Target: human PCSK9 (Homo sapiens)
Assay: PCSK9 ligand binding assay (TR-FRET): interference with binding of human PCSK9 to human LDLR
Conditions: efficacy (Amax), 100% = 1 uM unlabeled human PCSK9, 0% = DMSO
Answers are plain numbers, in %.

Answered examples (5):
Recall the reported Max % inhibition of C[C@H]1C(=O)N[C@@H](CO)C(=O)N[C@@]2(Cc3ccc(Cl)cc3)CCCN(C2)C(=O)[C@H]([C@H]2CCc3ncccc32)CC(=O)N1Cc1ccc(Cl)cc1Oc1ccc(-c2cnc(CN(C)C)n2C)cc1.Cl [Compound 16] on human PCSK9 (Homo sapiens) and write it down.
97.5

Provide Max % inhibition, system human PCSK9 (Homo sapiens), entry C[C@H](c1ncc(-c2ccc(Oc3cc(Cl)ccc3CN3C(=O)C[C@@H]([C@@H]4CCc5ccccc54)C(=O)N4CCC[C@@](Cc5ccc(Cl)cc5)(C4)NC(=O)[C@H](CO)NC(=O)[C@@H]3C)cc2)n1C)N(C)C.Cl [Compound 70]
110.7

State recorded Max % inhibition with human PCSK9 (Homo sapiens), entry C[C@H]1C(=O)N[C@@H](CO)C(=O)N[C@@]2(Cc3ccc(Cl)cc3)CCCN(C2)C(=O)[C@H]([C@@H]2CCc3ccccc32)CC(=O)N1Cc1ccc(Cl)cc1Oc1ccc(-c2cnc(C3=CCN(C)C3)n2C)cc1.Cl [Compound 77] , no comment.
71.9

Using human PCSK9 (Homo sapiens) as the test system, report measured Max % inhibition of COC[C@@H]1NC(=O)[C@@H](C)N(Cc2c(F)cc(Cl)cc2Oc2ccc(-c3cnc(CN(C)C)n3C)nc2)C(=O)C[C@@H](CC(F)(F)F)C(=O)N2CCC[C@@](Cc3ccc(Cl)cc3)(C2)N(C)C1=O [Compound 176] .
86.3

Report Max % inhibition under test system human PCSK9 (Homo sapiens) for COC[C@@H]1NC(=O)[C@H](C)N(Cc2ccc(Cl)cc2Oc2ccc(-c3cnc(CN4CCCC4)n3C)cc2)C(=O)C[C@@H]([C@H]2COc3c(OC)cccc32)C(=O)N(C)C[C@@H](Cc2ccc(Cl)cc2)N(C)C1=O.Cl [Compound 110] .
102.2

Batch lookup, Max % inhibition per entry.
1. C[C@@H](c1ccccc1)[C@@H]1CC(=O)N(Cc2ccc(Cl)cc2Oc2ccc(-c3cnc(CN4CCCC4)n3C)cc2)[C@@H](C)C(=O)N[C@@H](CO)C(=O)N(C)[C@H](Cc2ccc(Cl)cc2)CN(C)C1=O.Cl [Compound 107]
2. C[C@H](O)[C@@H]1NC(=O)[C@H](C)N(Cc2ccc(Cl)cc2Oc2ccc(-c3cnc(CN(C)C)n3C)cc2)C(=O)C[C@@H](Cc2ccccc2)C(=O)N2CCC[C@@](Cc3ccc(Cl)cc3)(C2)NC1=O [Compound 109]
3. C[C@H]1C(=O)N[C@@H](CO)C(=O)N[C@@]2(Cc3ccc(Cl)cc3)CCCN(C2)C(=O)[C@H](CC2CC2)CC(=O)N1Cc1c(F)cc(Cl)cc1Oc1ccc(-c2cnc(CN(C)C)n2C)cc1 [Compound 145]
4. COC[C@@H]1NC(=O)[C@H](C)N(Cc2c(F)cc(Cl)cc2Oc2ccc(-c3cnc(CN(C)C)n3C)cc2)C(=O)C[C@@H](C2CCC2)C(=O)N2CCC[C@@](Cc3ccc(Cl)cc3)(C2)N(C)C1=O [Compound 140]
5. COC[C@@H]1NC(=O)[C@H](C)N(Cc2ccc(Cl)cc2Oc2ccc(-c3cnc(CN4CCCC4)n3C)cc2)C(=O)C[C@@H]([C@H]2CCc3ccccc32)C(=O)N2CCC[C@@](Cc3ccc(Cl)cc3)(C2)NC1=O.O=C(O)C(F)(F)F [Compound 96]
6. COC[C@@H]1NC(=O)[C@H](C)N(Cc2c(F)cc(Cl)cc2Oc2ccc(-c3cnc(CNC(C)(C)C)n3C)cc2)C(=O)C[C@@H](CC(F)(F)F)C(=O)N2CCC[C@@](Cc3ccc(Cl)cc3)(C2)N(C)C1=O [Compound 136]
7. COC[C@@H]1NC(=O)[C@H](C)N(Cc2ccc(Cl)cc2Oc2ccc(-c3cnc(CNC(C)(C)C)n3C)cc2)C(=O)C[C@@H](Cc2ccccc2)C(=O)N2CCC[C@@](Cc3ccc(Cl)cc3)(C2)NC1=O [Compound 149]

[105.6, 82.0, 112.3, 109.6, 96.3, 113.0, 111.4]

Please report Max % inhibition for every entry that follows.
1. C[C@H]1C(=O)N[C@@H](CO)C(=O)N[C@@]2(Cc3ccc(Cl)cc3)CCCN(C2)C(=O)[C@H](CC2CCC2)CC(=O)N1Cc1c(F)cc(Cl)cc1Oc1ccc(-c2cnc(CN(C)C)n2C)cc1 [Compound 155]
2. C[C@H]1C(=O)N[C@@H](CO)C(=O)N[C@@]2(Cc3ccc(Cl)cc3)CCCN(C2)C(=O)[C@H](CC(F)F)NC(=O)N1Cc1ccc(Cl)cc1Oc1ccc(-c2cnc(CN(C)C)n2C)cc1.Cl [Compound 58]
3. COC[C@@H]1NC(=O)[C@H](C)N(Cc2ccc(Cl)cc2Oc2ccc(-c3cnc(CN4CCCC4)n3C)cc2)C(=O)C[C@@H]([C@H]2CC(C)(C)c3ccccc32)C(=O)N(C)C[C@@H](Cc2ccc(Cl)cc2)N(C)C1=O.Cl [Compound 111]

1. 101.4
2. 106.6
3. 102.4

# per-item lookup of Max % inhibition; items listed below
1. COC[C@@H]1NC(=O)[C@H](C)N(Cc2c(F)cc(Cl)cc2Oc2ccc(-c3cnc(CN(C)C)n3C)cc2)C(=O)C[C@@H](Cc2cccc(C)[n+]2[O-])C(=O)N2CCC[C@@](Cc3ccc(Cl)cc3)(C2)N(C)C1=O [Compound 168]
2. COC[C@@H]1NC(=O)[C@H](C)N(Cc2c(F)cc(Cl)cc2Oc2ccc(-c3cnc(CNC(C)(C)C)n3C)cc2)C(=O)C[C@@H](CC(F)(F)F)C(=O)N2CCC[C@@](Cc3ccc(Cl)cc3)(C2)NC1=O [Compound 138]

[114.9, 114.0]
